Reference source for all entries: PubChem BioAssay (NCI)

- Test system: K-562 leukemia
- procedure.text: NCI tumour cell line growth inhibition, 48 h
Answer each item with its documented TGI.

# return recorded TGI for entry C#C[C@]1(O)CCC2C3CCc4cc(Oc5nc(F)nc(-c6c7cc8ccccc8cc7c7n6CCS7)n5)ccc4C3CCC21C (stereo not given in full)
> 100 µM

# return recorded TGI for entry N#CC(Nc1ccccc1)c1ccc(C(C#N)Nc2ccccc2)cc1 (stereo not given)
> 100 µM

# return recorded TGI for entry C=C[C@H]1CCC/C=C/[C@@H]2C[C@H](O)C[C@H]2[C@H](O)/C=C/C(=O)O1
> 100 µM

# return recorded TGI for entry [N-]=[NH+]CC(=O)OC(COCc1ccccc1)COCc1ccccc1
> 100 µM

# return recorded TGI for entry CC1=NN(c2nc(N)nc(CSCc3nc(N)nc(N(C)C)n3)n2)C(C)(C)C1
32.1 µM

# return recorded TGI for entry CCC[CH2][Sn]([CH2]CCC)([O]C(=O)C(N)CSC)[O]C(=O)C(N)CSC (stereo not given)
7.81 µM

# return recorded TGI for entry O=C1C(=O)c2ccccc2C(O)=C1CN(CCCl)CCCl
> 100 µM

# return recorded TGI for entry O=[N+]([O-])c1ccc(N=Nc2c(O)ccc3ccccc23)cc1
> 100 µM

# return recorded TGI for entry O=C(Nc1cc[c]([Sb](=[O])([OH])[OH])cc1)c1ccccc1
> 100 µM

# return recorded TGI for entry CNn1c(C)n[nH]c1=O
> 100 µM

---

- Test system: DU-145 prostate
- procedure.text: NCI tumour cell line growth inhibition, 48 h
Where a SMILES comes first, the peptide text is derived from it. [ ]: non-standard residue; d: D form. The star is where a group is joined. ξ: configuration not given here. NMeN = CN[C@@H](CC(N)=O)C(=O)O; NMeV = CN[C@H](C(=O)O)C(C)C; ξNMeV = CNC(C(=O)O)C(C)C; Boc = CC(C)(C)OC(=O)*; ξNMeA = CNC(C)C(=O)O
Answer each item with its documented TGI.

Report value only: TGI, DU-145 prostate, COC(=O)C(C)N(C)C(=O)[C@H](CC(N)=O)N(C)C(=O)[C@@H]1CCCN1C(=O)[C@H](C(C)C)N(C)C(=O)C(C(C)C)N(C)C(=O)[C@@H](NC(=O)OC(C)(C)C)C(C)C (some centres undefined) (Boc-V[ξNMeV][NMeV]P[NMeN][ξNMeA]-OMe)
> 50 µM

Report value only: TGI, DU-145 prostate, CN1CCCCCC(=N\O)/C(=N/O)CCCCC1
> 100 µM

Report value only: TGI, DU-145 prostate, Cn1nc(-c2ccccc2)nc1[N+](=O)[O-]
> 10 µM

Report value only: TGI, DU-145 prostate, Cc1cc(N2CCN(c3ccnc4cc(Cl)ccc34)CC2)nc(NC2CCCCC2)n1
11.2 µM

---

- System: NCI-H226 lung
- procedure.text: NCI tumour cell line growth inhibition, 48 h
experimental.endpoint: TGI (µM)
Write it as a number; the unit µM goes unstated.

# return recorded TGI for entry C1CCN(C2OC3C(COC3N3CCCCC3)OC2OC2CCO[C@@H]2N2CCCCC2)CC1 (stereo partly drawn)
54.1

# return recorded TGI for entry C=C1CC(C)(COc2ccc3ccc(=O)oc3c2)OC1=O (stereo not drawn)
27.3

---

- Test system: SW-620 colon
- procedure.text: NCI tumour cell line growth inhibition, 48 h
Answer each item with its documented TGI.

# return recorded TGI for entry CCCN1CCN(c2ccc3nc(-c4ccc5nc(-c6cc(OC)ccc6OC)[nH]c5c4)[nH]c3c2)CC1
3.57 µM

# return recorded TGI for entry Cc1ccc(NC(=O)CC(=O)n2nc(-c3ccccc3)c(N=Nc3ccccc3Cl)c2-c2ccccc2)cc1
> 100 µM

# return recorded TGI for entry CCN(CC)CCNC(=O)c1nn(C)c(=S)[nH]c1=S
> 100 µM

# return recorded TGI for entry COC1OC(C)C(O)CC1OS(=O)(=O)c1ccc(C)cc1 (stereo not given)
> 100 µM

# return recorded TGI for entry NC1CCCCC1N.O=S(=O)([O-])CCCN1CCOCC1.O=S(=O)([O-])CCCN1CCOCC1.[Pt+4]
17.1 µM

# return recorded TGI for entry COC(=O)C12CC3CC(C1)CC(C(=O)OC)(C3)C2
> 100 µM

# return recorded TGI for entry O=C(c1ccco1)N(C(=S)N1CCN(c2ccccn2)CC1)C1CCCCC1
> 100 µM

# return recorded TGI for entry O=C1C(=O)c2ccccc2C(O)=C1CN(CCCl)CCCl
> 100 µM

# return recorded TGI for entry O=c1oc2ccccc2c(O)c1C(c1ccc(/C=C/c2ccccc2)cc1)c1c(O)c2ccccc2oc1=O
> 100 µM

# return recorded TGI for entry C=CCN1C=CC(=O)[C@H](O[Si](C)(C)C(C)(C)C)[C@@H]1/C=C/c1ccccc1
29.3 µM

---

- Tested on: OVCAR-4 ovarian
- procedure.text: NCI tumour cell line growth inhibition, 48 h
Answer each item with its documented TGI.

# return recorded TGI for entry CCCC(C)C[C@@H](C)CC(C)/C=C(\C)c1oc(=O)c(C)c(O)c1C (stereo not given in full) (tested in a mixture with another compound)
26.6 µM

# return recorded TGI for entry OC(C/C(=N\N1CCCCC1)c1cccs1)(C(F)(F)F)C(F)(F)F
> 10 µM

# return recorded TGI for entry CN(/N=C/c1ccccn1)C1=NCCCCN1
> 100 µM

# return recorded TGI for entry CCCN1CN(C(C(=O)N[C@@H]2C(=O)N3C(C(=O)O)=C(C)CSC23)c2ccc(O)cc2)CSC1=S (stereo not given in full)
> 100 µM

# return recorded TGI for entry O=S(=O)(c1ccc(N=C2NN=C(c3c[nH]c4ccccc34)CS2)cc1)N1CCOCC1
> 100 µM

# return recorded TGI for entry O=[N+]([O-])c1ccc2[nH]ncc2c1Cl
85.5 µM

# return recorded TGI for entry COc1ccc(CNc2c3ccccc3nc3ccc(OC)cc23)cc1
10.5 µM

# return recorded TGI for entry CCCCc1ccc(-n2c3nc(=O)n(C)c(=O)c-3nc3ccccc32)cc1
22 µM

# return recorded TGI for entry CNn1c(C)n[nH]c1=O
> 100 µM

# return recorded TGI for entry Fc1ccccc1-c1nn2c(C34CC5CC(CC(C5)C3)C4)nnc2s1
> 100 µM

---

- Tested on: OVCAR-4 ovarian
- procedure.text: NCI tumour cell line growth inhibition, 48 h; in the data active = GI50 below about 0.43 µM; inactive = the rest
Outcome field: choose from class 1 (active), class 0 (inactive)

// param item: O=C(Nc1ccc(F)cc1F)c1cc(Br)ccc1O ; yields the recorded call
class 0

// param item: O=C(N/N=C/c1ccccc1Cl)c1ccccc1Nc1ccnc(C(F)(F)F)c1 ; yields the recorded call
class 0

// param item: Cc1cc(-c2nnc(N)nc2-c2ccc(F)cc2)cc(Cl)n1 ; yields the recorded call
class 0

// param item: C=CCN(CC=C)C(=O)c1cc(C)nc2c1c(=O)n(-c1ccccc1)c(=O)n2CC(O)CN1CCN(c2ncccn2)CC1 (stereo not drawn) ; yields the recorded call
class 0

// param item: c1cc(OCCN2CCCCC2)ccc1CNc1ccc2nc(CCC3CCCCC3)[nH]c2c1 ; yields the recorded call
class 0

// param item: C=C[C@H]1CCC/C=C/[C@@H]2C[C@H](O)C[C@H]2[C@H](O)/C=C/C(=O)O1 ; yields the recorded call
class 1

// param item: CC/C(=C(/CC)c1ccc(O)cc1)c1ccc([O-])cc1.CC/C(=C(/CC)c1ccc(O)cc1)c1ccc([O-])cc1.O=C([CH-]C(=O)c1ccccc1)c1ccccc1.O=C([CH-]C(=O)c1ccccc1)c1ccccc1.[Ti+4] ; yields the recorded call
class 0

// param item: O=C([O][Hg][CH2]C1COCC([CH2][Hg][O]C(=O)c2ccccc2)O1)c1ccccc1 (stereo not drawn) ; yields the recorded call
class 0

// param item: COc1cc2cc(C(=O)Nc3cc(N)c4ccccc4c3CCCl)[nH]c2c(OC)c1OC ; yields the recorded call
class 1

// param item: CC1(C)CC(n2cnc(-c3ccc(F)cc3)c2-c2ccnc(N)n2)CC(C)(C)N1 ; yields the recorded call
class 0

// param item: Cc1cc(N2CCN(c3ccnc4cc(Cl)ccc34)CC2)nc(NC2CCCCC2)n1 ; yields the recorded call
class 0

// param item: CCCN1CCN(c2ccc3nc(-c4ccc5nc(-c6cc(OC)ccc6OC)[nH]c5c4)[nH]c3c2)CC1 ; yields the recorded call
class 0

// param item: C=CCN1C=CC(=O)[C@H](O[Si](C)(C)C(C)(C)C)[C@@H]1/C=C/c1ccccc1 ; yields the recorded call
class 0

// param item: Cc1cc(N2CCCC2)nc(NC2CCCC(Nc3ccnc4cc(Cl)ccc34)C2)n1 (stereo not drawn) ; yields the recorded call
class 0

// param item: CC[O-].CC[O-].O=C1C(c2ccccc2)=C([O-])c2ccccc21.O=C1C(c2ccccc2)=C([O-])c2ccccc21.[Ti+4] ; yields the recorded call
class 0

// param item: CCC[CH2][Sn]([CH2]CCC)([O]C(=O)C(N)CSC)[O]C(=O)C(N)CSC (stereo not drawn) ; yields the recorded call
class 0

// param item: CCOc1ccc(Nc2nc(-c3ccc4c(c3)NC(=O)CO4)cs2)cc1 ; yields the recorded call
class 0

// param item: O=C([CH-]C(=O)c1ccccc1)c1ccccc1.O=C([CH-]C(=O)c1ccccc1)c1ccccc1.O=C([CH-]C(=O)c1ccccc1)c1ccccc1.[OH3+].[Y+3] ; yields the recorded call
class 0
